protocol: Purity and stability test (content of impurities on storage)
Assay type: physicochemical
condition-summary: sealed containers at 0-8° C. for 7 days
measurement-kind: 0-8° C., content of impurities in the sample at 7 day (%)

{"compound": "C[C@@H](O)[C@@H]1NC(=O)[C@@H](N)C[C@@H](O)[C@@H](O)NC(=O)[C@@H]2[C@@H](O)[C@@H](C)CN2C(=O)[C@H]([C@H](O)CC(N)=O)NC(=O)[C@H]([C@H](O)[C@@H](O)c2ccc(O)c(OS(=O)(=O)O)c2)NC(=O)[C@@H]2C[C@@H](O)CN2C1=O", "value-units": "%", "quantitative-result": 4.8}
{"compound": "CC(O)C1NC(=O)C(N)CC(O)C(O)NC(=O)C2C(O)C(C)CN2C(=O)C(C(O)CC(N)=O)NC(=O)C(C(O)C(O)c2ccc(O)c(OS(=O)(=O)O)c2)NC(=O)C2CC(O)CN2C1=O (single isomer, unassigned) [Comparative Example 3]", "value-units": "%", "quantitative-result": 3.2}
{"compound": "CC(O)C1NC(=O)C(N)CC(O)C(O)NC(=O)C2C(O)C(C)CN2C(=O)C(C(O)CC(N)=O)NC(=O)C(C(O)C(O)c2ccc(O)c(OS(=O)(=O)O)c2)NC(=O)C2CC(O)CN2C1=O (single isomer, unassigned) [Comparative Example 4]", "value-units": "%", "quantitative-result": 2.9}

The reported measurements were obtained from patent US9580470B2.
